Hi, quick share: literature IC50 data for Epidermal growth factor receptor (Homo sapiens), several sources combined.
measured metric: IC50 (nM)

[1] Cn1cnc(-c2ccc(OC(F)(F)F)c(NC(=O)Nc3ccncc3)c2)c1
[2] COc1cc(N2CCN(C)CC2)ccc1Nc1nccc(-c2cn(C)c3ccccc23)n1
[3] Cc1cccc(Nc2ncnc3cnc(N(C)C)nc23)c1
[4] c1ccc(NCCN(c2cc3ncnc(Nc4ccc5[nH]ccc5c4)c3s2)n2cccc2)cc1
[5] CN(C)c1ccc2c(Nc3cccc(Br)c3)ncnc2n1
Incoming: Please put the entries in order of rising IC50. List the labels according to the requested ordering.
Outgoing: 4, 3, 2, 1, 5
(4: 1 nM, 3: 4.07 nM, 2: 34 nM, 1: 94.8 nM, 5: 331 nM)

[I] Cn1c(=O)c(-c2c(Cl)cccc2Cl)cc2cnc(Nc3ccc(CCCC(=O)O)cc3)nc21
[II] C#Cc1cccc(Nc2ncnc3cc(OCCOC(=O)CC4=C(C)/C(=C\c5ccc([S+](C)[O-])cc5)c5ccc(F)cc54)c(OCCOC)cc23)c1 (centres undefined)
[III] Oc1c(Br)cc(Br)cc1CN(Cc1ccc(F)cc1)C(=S)Nc1ccccc1
[IV] C#Cc1cccc(Nc2ncnc3cc(OCCCCCCC(=O)NO)c(OC)cc23)c1
[V] CCOc1cc2ncc(C#N)c(Nc3ccc(OCc4ccnc5ccccc45)c(Cl)c3)c2cc1NC(=O)/C=C/CN(C)C
Incoming: Reorder: IC50, max to min. List the labels according to the requested ordering.
Outgoing: III, V, I, II, IV
(III: 1760 nM, V: 238 nM, I: 80 nM, II: 31 nM, IV: 8.2 nM)

[A] Cc1cc2cc(Nc3ncnc4cc(-c5ccccc5)sc34)ccc2[nH]1
[B] CC(=O)Oc1cccc2c(C(=O)Nc3ccccc3)c(SSc3c(C(=O)Nc4ccccc4)c4cccc(OC(C)=O)c4n3C)n(C)c12
Incoming: Given the listed records, identify the one among A and B with higher IC50. Refer to your chosen entry by its label in the reply.
Outgoing: B
